Kp uu values, listed per item
# ASSAY_REMARKS: Brain penetration study in rat (Kp,uu,brain)
# Type: in vivo
# CONDITION_DETAILS: brain and plasma (unbound); 7-week-old SD-type or WKY-type rat; subcutaneous or oral administration; plasma and brain collected 0.5, 1 or 2 hours after administration; LC-MS; read-out: Kp,uu,brain (Unbound brain-to-plasma drug concentration ratio)
Answer with a bare number; do not write a unit.

Example cases with answers are listed next.
SMILES_REPR: Fc1cccnc1-c1cc2n(n1)CCN(Cc1ccc3c(n1)CCC3)C2
OBSERVED_RESULT: 0.58

SMILES_REPR: Cc1ncc(CN2CCn3nc(-c4ncccc4C)c(C)c3C2)cn1
OBSERVED_RESULT: 1.42

SMILES_REPR: Cc1ncc(CN2CCn3nc(-c4ccccn4)cc3C2)c(N)n1
OBSERVED_RESULT: 0.2

SMILES_REPR: Cc1cccnc1-c1cc2n(n1)CCN(Cc1nc3ccccc3[nH]1)C2
OBSERVED_RESULT: 0.79

In plain terms, Cc1cccnc1-c1cc2n(n1)CCN(Cc1ccc3c(n1)CCC3)C2 has a documented Kp uu of 0.77

In plain terms, Cc1c(-c2ncccc2F)nn2c1CN(Cc1ccc(C(F)(F)F)cn1)CC2 has a documented Kp uu of 0.6

Data origin: patent US20160318933A1
